Sourced from PubChem BioAssay (NCI)

Test system: OVCAR-4 ovarian
Assay: NCI-60 one-dose screen, 48 h (100 = growth as untreated, 0 = no growth, -100 = all killed)
Settings: 10 µM unless noted
Compounds without any hit were thinned out: in the full panel of roughly 83,000, 20% have a hit.
Quick reference: growth of the listed items.
Note: unit % is implicit; provide only the numeric part.

COMPOUND | growth [%]
COc1cc(-c2cc(=O)oc3cc(O)ccc23)cc(OC)c1OC | 73
CC(O)/C=C/C=C/C(O)CC/C=C/C(=O)NCC(C)(C)O (stereo unspecified) | 106
COc1ccc(-c2nc(N/N=C/c3ccco3)nc(N3CCOCC3)c2C#N)cc1 | 78

*Q* Find the recorded growth belonging to C=C1C(=O)O[C@H]2[C@H]1CC/C(COC(=O)CCCc1c[nH]c3ccccc13)=C\CC[C@@]1(C)O[C@@H]21 and report it.
*A* 65.8

*Q* // returns reported growth for input O=C1/C(=C/c2ccc(O)cc2)COc2ccc(-c3ccccc3)cc21
*A* 100

*Q* Sample Fc1ccc(C2CC(c3cccc(Nc4ccncc4)c3)=NN2c2ccccc2)cc1 (stereo unspecified) — what was its growth?
*A* 51.9

*Q* I would be grateful if you could share the reported growth for COc1ccc(Nn2c(SCC(=O)Nc3nc(-c4ccc(Cl)cc4)cs3)nc(C)c2C)cc1 .
*A* 37

*Q* Record request: growth value, item CCCCCCCCCCCCCCCCCCOc1ccccc1N
*A* 55

*Q* Find the recorded growth belonging to O=C1NC(=S)NC(=O)C1=Cc1cn(Cc2ccccn2)c2ccccc12 and report it.
*A* 80.8

====

Tested on: SW-620 colon
Assay: NCI-60 one-dose screen, 48 h (100 = growth as untreated, 0 = no growth, -100 = all killed)
Details: 10 µM unless noted
This is part of a sample that, as a whole, favours compounds with a hit. Of some 83,000 tested, about 20% had one in any assay.
Could you mark each record condition met if its growth falls strictly under 80%, and condition not met if it equals or exceeds it?

COMPOUND | DISCRETE_LABEL
CCCN=C(N)c1ccc(NC(=O)c2ccc(C(=O)Nc3ccc(C(N)=NCCC)cc3)cc2)cc1 | condition not met

*Q* Check if growth falls below 80% for CNC(=O)Nc1ccc(-c2nc(N3CCOCC3)nc3c2cnn3C2CCOCC2)cc1 .
*A* condition met

*Q* Is it true that growth reported for O=C(OCc1nc2nc(Cl)nc(N3CCOCC3)c2[nH]1)n1ccnc1 is less than 80%?
*A* condition met

*Q* Dear colleague, could you confirm whether growth of Cn1c(COC(=O)NCCn2ccnc2)nc2c(N3CCOCC3)nc(-c3ccccc3)nc21 falls below 80%? Thanks.
*A* condition met

*Q* API: query returns whether the compound falls strictly under 80% in growth. Query: Cc1ccccc1-c1cc(Cc2ccc(F)cc2)c(=O)[nH]n1
*A* condition not met

*Q* Please let me know if Clc1cc(Cl)cc(N2N=C(c3cccc(Nc4ccncc4)c3)CC2c2ccc(Br)cc2)c1 (centres undefined) shows growth below 80%.
*A* condition met

*Q* Please check: growth for CCC(C)N(CCNc1cc(OC)cc2cccnc12)CCC(C)C (centres undefined) , strictly under 80% or not?
*A* condition met

*Q* Input C=C(C)[C@@H]1CC[C@]2(C(=O)NCC(=O)OC)CC[C@]3(C)[C@H](CC[C@@H]4[C@@]5(C)Cc6c([nH]c7ccccc67)C(C)(C)[C@@H]5CC[C@]43C)[C@@H]12 ; condition: growth strictly below 80%. Does it hold?
*A* condition not met

*Q* Please indicate whether the reported growth of CC(=O)OC1CCC2(C)C(CCC3C4CC=C(C(C)=O)C4(C)OC(=O)CC32)C1 (centres undefined) is strictly below 80%.
*A* condition met

*Q* Does the reported growth of CN(C)C(=O)c1cc2cnc(Nc3ccc(-c4csc5c(=O)cc(N6CCOCC6)oc45)cc3)nc2n1C1CCCC1 stay below 80%?
*A* condition met

*Q* Just wondering, is growth of CC1(c2ccccc2)NC(=O)N(CC(=O)Nc2cccc(I)c2)C1=O (centres undefined) below 80%?
*A* condition not met

*Q* Is growth of CC(Oc1ccc(C(=O)NS(=O)(=O)C(C)(C)C)cc1C(F)(F)F)c1ccc(Oc2ccccc2)cn1 (centres undefined) strictly below 80%?
*A* condition met

*Q* # strict comparison: is reported growth < 80%? input = O=C1CCCCCCCCC(O)C(O)CCCC(c2cccs2)O1 (centres undefined)
*A* condition not met

*Q* Identify whether the compound Cn1/c(=N/NC(N)=S)ccc2ccccc21 records growth below 80%.
*A* condition not met

====

Test system: UACC-257 melanoma
Assay: NCI-60 one-dose screen, 48 h (100 = growth as untreated, 0 = no growth, -100 = all killed)
Details: 10 µM unless noted
Compounds without any hit were thinned out: in the full panel of roughly 83,000, 20% have a hit.
Cut-off 60% on growth, inclusive. At or above means Fulfilled; below means Not fulfilled.

MOLECULE | STUDY_SYSTEM | DISCRETE_LABEL
C[C@@H]1CN(Cc2ccc(/C=C/c3n[nH]c4ccc5nc(-c6cn[nH]c6C(F)(F)F)c6c(c5c34)CCCC6)cc2)C[C@H](C)O1 | UACC-257 melanoma | Fulfilled
COc1cc2nc(-c3ccc(C#N)cc3)[nH]c(=O)c2cc1OC | UACC-257 melanoma | Not fulfilled
Cc1cc(C(=O)Nc2ncnc3nc[nH]c23)no1 | UACC-257 melanoma | Fulfilled
C(=N\Nc1ncc(-c2cc3cc4c(cc3o2)OCO4)s1)/c1c[nH]c2ccccc12 | UACC-257 melanoma | Not fulfilled

*Q* State whether the measured growth reaches 60%, counting equality as reaching it, for Fc1ccc(C2CC(c3cccc(Nc4ccncc4)c3)=NN2c2ccccc2)cc1 (centres undefined)
*A* Not fulfilled

*Q* For this molecule, is measured growth 60% or higher? CC(Oc1ccc(C(=O)NS(=O)(=O)C(C)(C)C)cc1C(F)(F)F)c1ccc(Oc2ccccc2)cn1 (centres undefined)
*A* Fulfilled

*Q* hey, is growth for this one >= 60%? CN1CCN(c2c(F)cc(NC3=C(Cl)C(=O)c4ncccc4C3=O)cc2F)CC1
*A* Fulfilled

====

Test system: ACHN renal
Assay: NCI-60 one-dose screen, 48 h (100 = growth as untreated, 0 = no growth, -100 = all killed)
Conditions: 10 µM unless noted
Compounds without any hit were thinned out: in the full panel of roughly 83,000, 20% have a hit.
# growth listing for each entry below
Quick note: give the figure in %, leave out the unit.

Some compounds with recorded growth:
COMPOUND | SCALE_UNIT | growth
O=C(OC(OC(=O)c1cc(Cl)cc(Cl)c1)c1cccc2ccccc12)c1ccccc1 (stereo not drawn) | % | 102
COc1ccc(-c2nc(N/N=C/c3ccco3)nc(N3CCOCC3)c2C#N)cc1 | % | 78.3
CN(C)C(=O)c1cc2cnc(Nc3ccc(-c4csc5c(=O)cc(N6CCOCC6)oc45)cc3)nc2n1C1CCCC1 | % | 1.06
Cc1nn(-c2ccccc2)c(N2CCOCC2)c1/C=N/N=c1\sc2ccccc2n1C | % | 82.4
O=S(=O)(NCCCNc1nccc(-c2c(-c3cccc(O)c3)nc3occn23)n1)c1ccc(Br)cc1 | % | 84.9

*Q* Item under review: COc1ccc(C2=NN(C(C)=O)C(c3cn(Cc4ccc(Cl)cc4)c4ccccc34)C2)cc1 (stereo not drawn) . Reported growth?
*A* 74.5

*Q* // lookup growth for CCCCCCCCCCCCCCCC(=O)OC[C@@]1(O)C[C@@]23CC[C@@H]4C(C)(C)CCC[C@@]4(C)[C@@H]2CC[C@H]1C3
*A* 106

*Q* Fill in: growth of Cc1cc(NC(=O)c2cnc(N3CCN(CCOCCOCCOCCOCCC(=O)N[C@H](C(=O)N4C[C@H](O)C[C@H]4C(=O)N[C@@H](C)c4ccc(-c5scnc5C)cc4)C(C)(C)C)CC3)cn2)c2ncccc2c1 is ___
*A* 37.9

*Q* Give its growth value. Item: NC(=O)c1cccc(-c2ccccc2N2CCCCC2)c1
*A* 95.3

*Q* Quick one: growth of O=C(CCN1CCCC1)Nc1ccc2c(Nc3ccccc3)c3ccccc3nc2c1 ?
*A* 1.77

*Q* Returns the measured growth for the input compound. Input: CCN(CC)CCCC(Nc1c2ccc(Cl)cc2nc2ccc(OC)cc12)c1ccc(Cl)cc1 (stereo not drawn)
*A* -33.7

*Q* Name the recorded growth for N#C/C(=C\c1ccc(Br)cc1)n1nnc2cccc(F)c21 .
*A* 20.2

*Q* Quick one: growth of CC(=O)N1c2ccccc2NC2=C(C(=O)N(C)C2(C)C)C1C (stereo not drawn) ?
*A* 97

*Q* Which value of growth has been reported for CCCCCCOc1ccc(/C=N/Nc2cc(C)nc3ccc(Br)cc23)cc1 in the records?
*A* -98.3

*Q* Suppose we examine the compound CN1CCN(CCCOc2ccc3ncnc(Nc4ccc(Oc5cccc(C(F)(F)F)c5)c(Cl)c4)c3c2)CC1 ; what growth value has been reported?
*A* -37.5

*Q* Which value of growth has been reported for CC(=O)[C@@H]1CC[C@]2(C(N)=O)CC[C@]3(C)[C@H](CC[C@@H]4[C@@]5(C)CCC(=O)C(C)(C)[C@@H]5CC[C@]43C)[C@@H]12 in the records?
*A* 97.1

*Q* Param item = CC(=O)O[C@]1(C(C)=O)CC[C@H]2[C@@H]3C=C(Cl)C4=CC(=O)CC[C@]4(C)[C@H]3CC[C@@]21C ; retrieve measured growth.
*A* 108

*Q* // lookup growth for CN(C)c1ccc(-c2c(C#N)c(N)n3nc(N)c(C#N)c3c2C#N)cc1
*A* 86.5
